Test: Solubility at pH 6.5 buffer
Format: physicochemical
Measured Property: solubility (µg/mL)

Molecule: CC(C)(C)C(=O)N1CCC(CN2CCC(NC(=O)Nc3cc(C(F)(F)F)cc(C(F)(F)F)c3)CC2)CC1
solubility [µg/mL]: 45

[A] O=C(Nc1ccc2ccccc2c1)NC1CCN(C/C2=C/CCCCCC2)CC1
[B] O=C(Nc1cc(C(F)(F)F)cc(C(F)(F)F)c1)NC1CCN(CCC2CCS(=O)(=O)C2)CC1 (stereo unspecified)
**Q:** Field: lower solubility | Options: A / B Your choice should be expressed through its label.
**A:** A

====

Assay: Oral bioavailability in BALB/c mouse at 30 mg/kg
Type: ADME, organism-based
Conditions: in vivo
Measured Property: bioavailability (%)

Compound: CC(=O)N1C2C=C(CN3C4CCC3CC(NC(=O)Nc3cc(F)cc(C(F)(F)F)c3)C4)CC1CCC2 (stereo not drawn)
Test Result: 70

[1] O=C(Nc1ccc2ccccc2c1)NC1CCN(C/C2=C/CCCCCC2)CC1
[2] O=C(Nc1cc(C(F)(F)F)cc(C(F)(F)F)c1)NC1CCN(CCC2CCS(=O)(=O)C2)CC1 (stereo not drawn)
**Q:** Field: lower bioavailability | Options: 1 / 2 Your choice should be expressed through its label.
**A:** 1

====

Assay: Half life in mouse
Format: ADME, organism-based
Conditions: in vivo
Measured Property: half-life (h)
# unit: h | format: bare number

**Q:** // Input: O=C(Nc1cc(C(F)(F)F)cc(C(F)(F)F)c1)NC1CCN(CCC2CCS(=O)(=O)C2)CC1 (stereo unspecified) . Output its half-life only.
**A:** 5.5

====

Target: C-X-C chemokine receptor type 3 (Homo sapiens, UniProt P49682)
Sequence (P49682 whole entry): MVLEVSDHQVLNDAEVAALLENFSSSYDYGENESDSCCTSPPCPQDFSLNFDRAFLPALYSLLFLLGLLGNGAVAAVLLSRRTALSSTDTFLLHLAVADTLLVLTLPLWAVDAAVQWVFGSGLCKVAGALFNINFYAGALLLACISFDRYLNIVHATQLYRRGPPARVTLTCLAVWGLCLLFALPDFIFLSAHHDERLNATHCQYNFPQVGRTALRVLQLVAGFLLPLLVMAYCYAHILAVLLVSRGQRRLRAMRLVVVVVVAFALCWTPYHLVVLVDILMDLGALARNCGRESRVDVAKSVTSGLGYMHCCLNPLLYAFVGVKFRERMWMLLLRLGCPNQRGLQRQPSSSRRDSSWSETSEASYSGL
Assay: Antagonist activity at human CXCR3 by [35S]GTP-gamma-S binding assay
Measured Property: Ki (nM)

A selection of reference data follows.
Molecule: CC(C)(C)C(=O)N1C2C=C(CN3CCC(NC(=O)Nc4cc(F)cc(C(F)(F)F)c4)CC3)CC1CC2 (centres undefined)
Test Result: 18
--
Molecule: CC(C)(C)C(=O)N1CCC(CN2CCC(NC(=O)Nc3cc(C(F)(F)F)cc(C(F)(F)F)c3)CC2)CC1
Test Result: 60
--
Molecule: CC(=O)N1C2C=C(CN3C4CCC3CC(NC(=O)Nc3cc(F)cc(C(F)(F)F)c3)C4)CC1CCC2 (centres undefined)
Test Result: 7
--
Molecule: CC(C)C(=O)N1C2C=C(CN3CCC(NC(=O)Nc4cc(F)cc(C(F)(F)F)c4)CC3)CC1CC2 (centres undefined)
Test Result: 28
--
Molecule: CC(=O)N1CCC(CN2CCC(NC(=O)Nc3cc(C(F)(F)F)cc(C(F)(F)F)c3)CC2)CC1
Test Result: 180

[A] CCOC(=O)N1C2C=C(CN3CCC(NC(=O)Nc4cc(F)cc(C(F)(F)F)c4)CC3)CC1CC2 (centres undefined)
[B] CC(=O)N1C2C=C(CN3CCC(NC(=O)Nc4cc(F)cc(OC(C)C)c4)CC3)CC1CCC2 (centres undefined)
**Q:** Which shows the larger Ki value: A or B ? Your choice should be expressed through its label.
**A:** A
(A: 190 nM, B: 3 nM)

[P] O=C(Nc1cc(C(F)(F)F)cc(C(F)(F)F)c1)NC1CCN(CCC2CCS(=O)(=O)C2)CC1 (centres undefined)
[Q] CC(=O)c1cccc(NC(=O)NC2CCN(CC3=CC4CCCC(C3)N4C(C)=O)CC2)c1 (centres undefined)
[R] CC(C)(C)C(=O)N1C2C=C(CN3CCC(NC(=O)Nc4cc(F)cc(C(F)(F)F)c4)CC3)CC1CCC2 (centres undefined)
**Q:** Falling order of Ki, please. List the labels, following the order given in the request.
**A:** P, Q, R

[I] O=C(Nc1cc(F)cc(C(F)(F)F)c1)NC1CCN(CC2=CC3CCC(C2)N3C(=O)C2CC2)CC1 (centres undefined)
[II] CC(=O)N1C2C=C(CN3CCC(NC(=O)Nc4cc(F)cc(C(F)(F)F)c4)CC3)CC1CCC2 (centres undefined)
**Q:** Which shows the larger Ki value: I or II ? Your choice should be expressed through its label.
**A:** I
(I: 20 nM, II: 9 nM)

====

Below: a set of entries, each annotated with reported solubility.
Experiment: Solubility at pH 6.5 buffer
Format: physicochemical
# unit: µg/mL | format: bare number

Compound: CC(=O)N1C2C=C(CN3C4CCC3CC(NC(=O)Nc3cc(F)cc(C(F)(F)F)c3)C4)CC1CCC2 (stereo not drawn)
Reading Unit: µg/mL
solubility: 40

**Q:** // Input: CC(=O)N1CCC(CN2CCC(NC(=O)Nc3cc(C(F)(F)F)cc(C(F)(F)F)c3)CC2)CC1 . Output its solubility only.
**A:** 850
